- Test system: Plasmodium falciparum
- PROTOCOL_NOTES: microbe, parasite or virus in culture
- SETTINGS: HB3, 72 h
- Description: Growth inhibition of Plasmodium falciparum HB3 ring stage in infected erythrocytes after 72 hrs in DAPI fluorimetry
Catalogue of pIC50 values
Recall that pIC50 is obtained by taking minus log10 of the concentration measured in molar.

Known results for compounds:
C[C@@H]1CC[C@H]2[C@@H](C)C(=O)O[C@@H]3O[C@@]4(C)CC[C@@H]1[C@]32OO4 | 8.01
OC(c1cc(C(F)(F)F)nc2c(C(F)(F)F)cccc12)C1CCCCN1 (stereo not drawn) | 8.02

Case CCc1nc(N)nc(N)c1-c1ccc(Cl)cc1 , Plasmodium falciparum, pIC50 recorded as 7.30

---

Examples of compounds with documented IC50 follow.
- Test system: Plasmodium falciparum
- PROTOCOL_NOTES: Growth inhibition of Plasmodium falciparum ring stage in infected erythrocytes by DAPI growth assay
- Format: functional, organism-based
Give just the number in nM; leave the unit off.

Reference set (2 entries):
O=C1C(O)=C([C@H]2CC[C@H](c3ccc(Cl)cc3)CC2)C(=O)c2ccccc21 | 0.63
C=C[C@H]1CN2CC[C@H]1C[C@H]2[C@H](O)c1ccnc2ccc(OC)cc12 | 69.2

Alright, here's another compound for you.
IC50 recorded for this compound, C[C@@H]1CC[C@H]2[C@@H](C)C(=O)O[C@@H]3O[C@@]4(C)CC[C@@H]1[C@]32OO4 , is 9.67
